Origin of the recorded values: patent US20160208330A1

system: genes listed in Table 6 (CR marker panel), white adipose tissue; test: Testing ingredients for mimicry of caloric restriction: feeding study, RT-qPCR of the Table 6 gene panel in white adipose tissue, fold change as percentage of the fold change in the CR group; type: in vivo, C57BL/6J mice; conditions: average over significantly changed genes, fold change as percentage of CR fold change; white adipose tissue
Listed here: items and their measured Avg. mimicry.

Molecule | Test target | Avg. mimicry / %
Oc1ccc(C=Cc2cc(O)cc(O)c2)cc1 | genes listed in Table 6 (CR marker panel), white adipose tissue | 34
O=c1c(O)c(-c2ccc(O)c(O)c2)oc2cc(O)cc(O)c12 | genes listed in Table 6 (CR marker panel), white adipose tissue | 20
CC(C)(Oc1ccc(CCNC(=O)c2ccc(Cl)cc2)cc1)C(=O)O [Bezafibrate, bezafibrate] | genes listed in Table 6 (CR marker panel), white adipose tissue | 83
CN(C)C(=N)N=C(N)N | genes listed in Table 6 (CR marker panel), white adipose tissue | 16
C[N+](C)(C)C[C@H](O)CC(=O)[O-] | genes listed in Table 6 (CR marker panel), white adipose tissue | 31
